biological target: T1, full length human GLP-1R with N-terminal FLAG tag and C-terminal GFP tag, on CHO cells (human, UniProt P43220 24-463); test: flow cytometry, GLP1R-expressing CHO cells
T1 construct: whole, on cells; the cell line itself is tied to UniProt P43220; also called FLAG-GLP-1R-GFP; CHO-GLP-1R
testReadout: Median RL1-H of Expressing Singlets
Keep it simple and answer with nothing but the number.

GLP1R-222-081 (antibody, V domains shown, IgG) VH: QVQLVESGGGVVQPGRSLRLSCAASGFTFDNYALHWVRQAPGKGLEWVALISYDAGNKYYADSVKGRFTISRDNSKNTLYLQMNSLRAEDTAVYYCAKHMSMQEGAVTGEGQAAKEFIAWLVKGFVRADLVGDAFDVWGQGTLVTVSS VL: QSVLTQPPSVSAAPGQKVTISCSGSSSNIGSDYVSWYQQLPGTAPKLLIYDNNKRSSGIPDRFSGSKSGTSATLGITGLQTGDEADYYCGTWDESLRSWVFGGGTKLTVL
221000
GLP1R-222-073 (antibody, V domains shown, IgG) VH: QVQLVESGGGVVQPGRSLRLSCAASGFTFRDYGMHWVRQAPGKGLEWVAFIRYDEINKYYADSVKGRFTISRDNSKNTLYLQMNSLRAEDTAVYYCAKHMSMQEGAVTGEGQAAKEFIAWLVGGRVRADLVGDAFDVWGQGTLVTVSS VL: QSVLTQPPSVSAAPGQKVTISCSGSGSNIGNNDVSWYQQLPGTAPKLLIYDNNKRASGIPDRFSGSKSGTSATLGITGLQTGDEADYYCGTWDRGPNTGVFGGGTKLTVL
225000
GLP1R-222-082 (antibody, V domains shown, IgG) VH: QVQLVESGGGVVQPGRSLRLSCAASGFTFSAYSMHWVRQAPGKGLEWVALISYDATNKYYADSVKGRFTISRDNSKNTLYLQMNSLRAEDTAVYYCAKHMSMQEGAVTGEFQAAKEFIAWLVKGRVRADLVGDAFDVWGQGTLVTVSS VL: QSVLTQPPSVSAAPGQKVTISCSGSSSNIGSKYVSWYQQLPGTAPKLLIYDNNKRPSGIPDRFSGSKSGTSATLGITGLQTGDEADYYCGTWDISPSAWVFGGGTKLTVL
224000

Input: State the recorded Median RL1-H of Expressing Singlets for this entry: GLP1R-222-012 (antibody, V domains shown, IgG) VH: QVQLVESGGGVVQPGRSLRLSCAASGFTFNNYGMHWVRQAPGKGLEWVAVISDEGSNKYYADSVKGRFTISRDNSKNTLYLQMNSLRAEDTAVYYCAKHMSMQEGAVTGVGQAAKEFIAWLVKGRVRADLVGDAFDVWGQGTLVTVSS VL: QSVLTQPPSVSAAPGQKVTISCSGSSSNIGNNDVSWYQQLPGTAPKLLIYDDDKRPSGIPDRFSGSKSGTSATLGITGLQTGDEADYYCGTWDTSLSVGEFGGGTKLTVL
Output: 225000

Values from patent US20250340658A1
